- System: YES;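 also: KINOMEscan scanMAX binding as percent activity remaining versus control; lower means stronger binding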
- Construct: gene YES1
- measurement parameters: Compound Concentration (nM):1000
Reported Percent Control values for a set of molecules

Reference set, count: 3
NS(=O)(=O)c1ccc(N/N=C2\C(=O)Nc3ccc(C(=O)NCCc4c[nH]cn4)cc32)cc1 [GW300660X] | 100%
CCc1ccc(Oc2nccc(-c3c(-c4ccc(F)cc4)ncn3C3CCNCC3)n2)cc1 | 78%
NS(=O)(=O)c1ccc(Nc2ncc(-c3ccccc3)o2)cc1 [GW572399X] | 100%

Quick check: Percent Control of Cl.O=S1CCN(Cc2ccc(-c3ccc4ncnc(Nc5ccc(OCc6ccccc6)c(F)c5)c4c3)o2)CC1 [GW576924A] ?
100%

Same lookup for CCS(=O)(=O)c1ccc(OC)c(Nc2ncc(-c3cccc(F)c3)o2)c1 [GW621970X] , please.
43%
